Test target: corticotropin releasing factor 1 receptor
Experiment: cell-based or functional assay
Ends that are not written are not given here.
For each record, write down the corresponding CRF1R Emax %.
Answers are plain numbers, in %.

Check out these entries, answers already filled in.
binder="NDDPPISIDLPTYLLRNMIEMARIENEREQAGLNAKYLAEV-NH2 [SEQ ID NO 266]" result_units=% value_observed=4.45
binder="IVLSLDVPIGLLQILLEQARHAAAHAAAHAQAHILAHV-NH2 [SEQ ID NO 367]" result_units=% value_observed=6

## Input Consider the binder ZGPPISIDLPQILLRKMIEIEKQEKEKQQAANNARLLARI (C-terminal amide) [SEQ ID NO 285] and give its measured CRF1R Emax %.
## Output 11.1
